measured on: T1, recombinant PD-1 extracellular domain Fc fusion protein (PD-1 Fc) (human, biotin label (sites not given) in the ELISA binding assay; unlabelled when coated in the ligand blocking assay)
T1 construct: also called human PD-1Fc; human PD-1
assay explanation: ELISA as in Example 2, biotinylated PD-1 Fc captured on avidin
reported metric: pEC50
Recall that pEC50 is obtained by taking minus log10 of the concentration measured in molar.

Can you share its pEC50? I mean this binder: humanized antibody H005-3 (antibody, human IgG4 S228P, kappa, F234A L235A, name in Kabat numbering, V domains shown, Back-mutated variant of H005-1, IgG4 constant region) VH: EVQLVESGGGLVQPGGSLRLSCAASGFTFSSYMMSWVRQAPGKGLEWVATISGGGANTYYPDSVKGRFTISRDNAKNSLYLQMNSLRAEDTAVYYCARQLYYFDYWGQGTTVTVSS VL: DIQMTQSPSSLSASVGDRVTITCLASQTIGTWLTWYQQKPGKSPKLLIYTATSLADGVPSRFSGSGSGTDFTLTISSLQPEDFATYYCQQVYSIPWTFGGGTKVEIKR
9.82
